- Test Target: human F508del-CFTR (Homo sapiens, UniProt P13569, DEL508-508)
- Sequence (P13569 with tags, fused parts or gaps DEL508-508): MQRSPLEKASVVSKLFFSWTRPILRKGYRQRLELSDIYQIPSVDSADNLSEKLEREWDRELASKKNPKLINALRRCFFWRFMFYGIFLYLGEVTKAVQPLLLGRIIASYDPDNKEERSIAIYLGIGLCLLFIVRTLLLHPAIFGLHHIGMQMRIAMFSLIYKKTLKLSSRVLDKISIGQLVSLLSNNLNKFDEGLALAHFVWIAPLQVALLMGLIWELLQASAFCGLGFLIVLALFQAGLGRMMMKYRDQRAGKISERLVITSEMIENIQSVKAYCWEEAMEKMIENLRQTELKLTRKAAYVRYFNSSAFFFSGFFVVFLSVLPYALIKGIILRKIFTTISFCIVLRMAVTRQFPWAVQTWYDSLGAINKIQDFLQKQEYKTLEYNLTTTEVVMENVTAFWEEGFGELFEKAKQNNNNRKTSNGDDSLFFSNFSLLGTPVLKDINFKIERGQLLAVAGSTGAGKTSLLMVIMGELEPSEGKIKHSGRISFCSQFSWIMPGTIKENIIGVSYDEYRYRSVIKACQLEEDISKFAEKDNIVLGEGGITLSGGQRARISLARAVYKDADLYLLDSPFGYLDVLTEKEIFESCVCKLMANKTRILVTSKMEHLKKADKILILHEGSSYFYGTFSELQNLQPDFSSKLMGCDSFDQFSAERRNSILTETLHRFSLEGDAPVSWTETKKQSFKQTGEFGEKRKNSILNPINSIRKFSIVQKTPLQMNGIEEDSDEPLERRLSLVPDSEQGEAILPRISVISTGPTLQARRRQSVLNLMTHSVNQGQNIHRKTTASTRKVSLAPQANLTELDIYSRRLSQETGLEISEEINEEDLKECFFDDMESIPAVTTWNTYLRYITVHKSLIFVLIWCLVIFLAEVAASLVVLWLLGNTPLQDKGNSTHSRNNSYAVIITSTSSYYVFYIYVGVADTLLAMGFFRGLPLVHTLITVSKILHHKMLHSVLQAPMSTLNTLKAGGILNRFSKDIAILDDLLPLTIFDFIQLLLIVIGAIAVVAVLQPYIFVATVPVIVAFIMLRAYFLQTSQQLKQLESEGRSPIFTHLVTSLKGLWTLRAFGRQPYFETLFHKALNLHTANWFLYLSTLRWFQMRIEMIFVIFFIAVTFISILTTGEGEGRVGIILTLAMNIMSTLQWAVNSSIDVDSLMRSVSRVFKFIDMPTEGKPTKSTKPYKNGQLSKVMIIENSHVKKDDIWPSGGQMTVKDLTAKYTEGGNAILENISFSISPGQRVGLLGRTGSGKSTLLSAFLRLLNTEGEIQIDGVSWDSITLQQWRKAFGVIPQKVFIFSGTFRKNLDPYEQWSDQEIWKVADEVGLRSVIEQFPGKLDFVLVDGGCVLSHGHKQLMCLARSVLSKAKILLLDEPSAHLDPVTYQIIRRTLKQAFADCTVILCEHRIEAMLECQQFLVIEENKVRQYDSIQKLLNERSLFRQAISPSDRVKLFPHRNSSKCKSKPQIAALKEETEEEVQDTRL
- Protocol Text: F508del-CFTR cell surface expression (corrector activity), DiscoveRx ß-galactosidase complementation chemiluminescence assay in recombinant U2OS cell line
- Protocol Conditions: EC50, F508del-CFTR cell surface expression, U2OS cell line, 16h compound incubation; geomean values
Readout Name: EC50 (nM)
Kindly answer with a numeric value in nM, unit omitted.

**Q:** Value lookup for EC50; key = COc1cccc(CCNC(=O)[C@@H]2CC(=O)N(C)[C@@H](CC(C)C)C(=O)N3CCN(CC(C)C)C[C@@H]3C(=O)N[C@H](Cc3ccccc3)COc3ccc4ncn(C)c4c3C(=O)N2)c1 [Example 364]
**A:** 264

**Q:** Value lookup for EC50; key = COc1cccc(CCNC(=O)[C@@H]2CC(=O)N(C)[C@@H](CC(C)C)C(=O)N(C)CC(=O)N[C@H](Cc3ccccc3)COc3cc(OC)ccc3C(=O)N2)c1 [Example 232]
**A:** 526

**Q:** Value lookup for EC50; key = COc1ccc(CCNC(=O)[C@@H]2CC(=O)N(C)[C@@H](CC(C)C)C(=O)N3CCCC[C@@H]3C(=O)N[C@H](Cc3ccccc3)COc3cnc4ccccc4c3C(=O)N2)cc1 [Example 84]
**A:** 274

---

- Test Target: human F508del-CFTR (Homo sapiens, UniProt P13569, DEL508-508)
- Protocol Text: F508del-CFTR cell surface expression (corrector activity), DiscoveRx ß-galactosidase complementation chemiluminescence assay in recombinant U2OS cell line
- Protocol Conditions: EC50, F508del-CFTR cell surface expression, U2OS cells, 16h compound incubation; geomean values
For each of the molecules below, state its pEC50.
Field pEC50 (float): negative decimal logarithm of the concentration in molar.

**Q:** Value lookup for pEC50; key = CC(C)C[C@H]1C(=O)N(CCC2CCCCC2)CC(=O)N[C@H](Cc2ccccc2)COc2ccc3ccccc3c2C(=O)N[C@H](C(=O)NCCc2ccc3c(c2)OCC3)CC(=O)N1C
**A:** 7.01

**Q:** Value lookup for pEC50; key = COc1nccc2c1C(=O)N[C@H](C(=O)NCCc1cc(C)no1)CC(=O)N(C)[C@@H](CC(C)C)C(=O)N1CCc3ccccc3[C@@H]1C(=O)N[C@H](Cc1ccccc1)CO2
**A:** 6.06

**Q:** Value lookup for pEC50; key = COc1nc(C)cc2c1C(=O)N[C@H](C(=O)NCCc1cc(C)no1)CC(=O)N(C)[C@@H](CC(C)C)C(=O)N1CCC3(CC3)C[C@@H]1C(=O)N[C@H](Cc1ccccc1)CO2
**A:** 6.44

**Q:** Value lookup for pEC50; key = Cc1cc(CCNC(=O)[C@@H]2CC(=O)N(C)[C@@H](CC(C)C)C(=O)N3CCCC[C@@H]3C(=O)N[C@H](Cc3ccccc3)COc3cnc4cccc(F)c4c3C(=O)N2)on1
**A:** 6.56

**Q:** Value lookup for pEC50; key = CC(C)C[C@H]1C(=O)N(CCC2CCCCC2)CC(=O)N[C@H](Cc2ccccc2)COc2ccncc2C(=O)N[C@H](C(=O)NCCc2ccc3c(c2)OCO3)CC(=O)N1C
**A:** 6.53

---

- Test Target: human F508del-CFTR (Homo sapiens, UniProt P13569, DEL508-508)
- Protocol Text: F508del-CFTR cell surface expression (corrector activity), DiscoveRx ß-galactosidase complementation chemiluminescence assay in recombinant U2OS cell line
- Protocol Conditions: U2OS, in relation to the Emax of the corrector lumacaftor (=100%); U2OS cell line, 16h compound incubation; arithmetic mean values
Readout Name: Emax (%)
Kindly answer with a numeric value in %, unit omitted.

**Q:** Value lookup for Emax; key = COc1cccc2c1OC[C@@H](NC(=O)[C@@H]1CC(=O)N(C)[C@@H](CC(C)C)C(=O)N3CCOC[C@@H]3C(=O)N[C@H](Cc3ccccc3)COc3ccc4ccccc4c3C(=O)N1)C2
**A:** 146

**Q:** Value lookup for Emax; key = COc1ccc(CCNC(=O)[C@@H]2CC(=O)N(C)[C@@H](CC(C)C)C(=O)N(CCC3CCCCC3)CC(=O)N[C@H](Cc3ccccc3)COc3cccc(OC)c3C(=O)N2)nc1
**A:** 138

**Q:** Value lookup for Emax; key = CC(C)C[C@H]1C(=O)N2CCCC[C@@H]2C(=O)N[C@H](Cc2ccccc2)COc2ccc3ncn(C)c3c2C(=O)N[C@H](C(=O)NCCc2nc3c(s2)CCC3)CC(=O)N1C
**A:** 140

**Q:** Value lookup for Emax; key = COc1nccc2c1C(=O)N[C@H](C(=O)NCCc1nc(-c3ccccc3)no1)CC(=O)N(C)[C@@H](CC(C)C)C(=O)N1CCCC[C@@H]1C(=O)N[C@H](Cc1ccccc1)CO2
**A:** 270

**Q:** Value lookup for Emax; key = COc1cccc(CCNC(=O)[C@@H]2CC(=O)N(C)[C@@H](CC(C)C)C(=O)N(C)CC(=O)N[C@H](Cc3ccccc3)COc3cc4c(cc3C(=O)N2)OCO4)c1OC (racemic)
**A:** 106

**Q:** Value lookup for Emax; key = COc1cccc(CCNC(=O)[C@@H]2CC(=O)N(C)[C@@H](CC(C)C)C(=O)N(C)C3(CC3)C(=O)N[C@H](Cc3ccccc3)COc3ccc4ccccc4c3C(=O)N2)c1
**A:** 326

**Q:** Value lookup for Emax; key = CC(C)C[C@H]1C(=O)N2CCCC[C@@H]2C(=O)N[C@H](Cc2ccccc2)COc2cnc3ccc(F)cc3c2C(=O)N[C@H](C(=O)NCCc2noc(C(C)C)n2)CC(=O)N1C
**A:** 301

**Q:** Value lookup for Emax; key = CN1C(=O)C[C@@H](C(=O)NCCc2ccc3c(c2)OCO3)NC(=O)c2c(ccc3ccccc23)OC[C@@H](Cc2ccccc2)NC(=O)CN(C[C@H]2CCCCO2)C(=O)[C@@H]1CC1CCCCC1 (racemic)
**A:** 154

**Q:** Value lookup for Emax; key = COc1cccc(CCNC(=O)[C@@H]2CC(=O)N(C)[C@@H](CC(C)C)C(=O)N3CCCC[C@@H]3C(=O)N[C@H](Cc3ccccc3)COc3ccnc(OC)c3C(=O)N2)c1
**A:** 257

**Q:** Value lookup for Emax; key = COc1cccc(CCNC(=O)[C@@H]2CC(=O)N(C)[C@@H](CC(C)C)C(=O)N3CCN(C4CC4)C[C@@H]3C(=O)N[C@H](Cc3ccccc3)COc3cnc4ccccc4c3C(=O)N2)c1
**A:** 320

---

- Test Target: human F508del-CFTR (Homo sapiens, UniProt P13569, DEL508-508)
- Protocol Text: F508del-CFTR cell surface expression (corrector activity), DiscoveRx ß-galactosidase complementation chemiluminescence assay in recombinant U2OS cell line;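 also: U2OS cells co-expressing ProLink-tagged F508del-CFTR and a membrane-anchored enzyme acceptor, where more surface CFTR restores β-galactosidase activity measured by chemiluminescence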
- Protocol Conditions: EC50, F508del-CFTR cell surface expression, U2OS cell line, 16h compound incubation; geomean values
Readout Name: pEC50
Field pEC50 (float): negative decimal logarithm of the concentration in molar.

**Q:** Value lookup for pEC50; key = Cc1cccc(CCNC(=O)[C@@H]2CC(=O)N(C)[C@@H](CC(C)C)C(=O)N(C)C3(CC3)C(=O)N[C@H](Cc3ccccc3)COc3cnc4ccccc4c3C(=O)N2)c1
**A:** 6.09

**Q:** Value lookup for pEC50; key = COc1cccc2c1C(=O)N[C@H](C(=O)NCCc1ccco1)CC(=O)N(C)[C@@H](CC(C)C)C(=O)N(CCC1CCCCC1)CC(=O)N[C@H](Cc1ccccc1)CO2
**A:** 6.56

**Q:** Value lookup for pEC50; key = COc1cccc(CCNC(=O)[C@@H]2CC(=O)N(C)[C@@H](CC(C)C)C(=O)N(C[C@@H]3CCCCO3)CC(=O)N[C@H](Cc3ccccc3)COc3cccc(OC)c3C(=O)N2)c1
**A:** 6.14

**Q:** Value lookup for pEC50; key = CN1C(=O)C[C@@H](C(=O)NCCc2ccc3c(c2)OCO3)NC(=O)c2c(ccc3ccccc23)OC[C@@H](Cc2ccccc2)NC(=O)CN(CC[C@H]2CCCCO2)C(=O)[C@@H]1CC1CC1
**A:** 6.50

**Q:** Value lookup for pEC50; key = COc1cccc(CCNC(=O)[C@@H]2CC(=O)N(C)[C@@H](CC(C)C)C(=O)N(C)CC(=O)N[C@H](Cc3ccccc3)COc3cccc(F)c3C(=O)N2)c1
**A:** 6.08

**Q:** Value lookup for pEC50; key = CC(C)C[C@H]1C(=O)N(C)C2(CC2)C(=O)N[C@H](Cc2ccccc2)COc2cnc3ccc(F)cc3c2C(=O)N[C@H](C(=O)NCCc2nc(C3CC3)no2)CC(=O)N1C
**A:** 6.85

**Q:** Value lookup for pEC50; key = CC(C)C[C@H]1C(=O)N2CCOC[C@@H]2C(=O)N[C@H](Cc2ccccc2)COc2cnc3ccccc3c2C(=O)N[C@H](C(=O)NCCc2cccc(Cl)c2)CC(=O)N1C
**A:** 6.45

**Q:** Value lookup for pEC50; key = CC(C)C[C@H]1C(=O)N2CCCC[C@@H]2C(=O)N[C@H](Cc2ccccc2)COc2cnc3ccccc3c2C(=O)N[C@H](C(=O)NCCc2cc(C3CC3)on2)CC(=O)N1C
**A:** 6.76

**Q:** Value lookup for pEC50; key = CC(C)C[C@H]1C(=O)N2CCCC[C@@H]2C(=O)N[C@H](Cc2ccccc2)COc2ccc3ncn(C)c3c2C(=O)N[C@H](C(=O)NCCc2ccc(-n3nccn3)cc2)CC(=O)N1C
**A:** 6.33

**Q:** Value lookup for pEC50; key = CCc1nc(CCNC(=O)[C@@H]2CC(=O)N(C)[C@@H](CC(C)C)C(=O)N(C)C3(CC3)C(=O)N[C@H](Cc3ccccc3)COc3cnc4ccccc4c3C(=O)N2)no1
**A:** 6.03

**Q:** Value lookup for pEC50; key = CC(C)C[C@H]1C(=O)N2CCOC[C@@H]2C(=O)N[C@H](Cc2ccccc2)COc2ccc3ccccc3c2C(=O)N[C@H](C(=O)NCCc2noc3ccccc23)CC(=O)N1C
**A:** 6.52

**Q:** Value lookup for pEC50; key = COc1cccc(CCNC(=O)[C@@H]2CC(=O)N(C)[C@@H](CC3CCCCC3)C(=O)N(C[C@@H]3CCCCO3)CC(=O)N[C@H](Cc3ccccc3)COc3cccc(OC)c3C(=O)N2)c1
**A:** 6.33

**Q:** Value lookup for pEC50; key = COc1cc(OC)c2c(c1)OC[C@@H](Cc1ccccc1)NC(=O)CN(CCC1CCCCC1)C(=O)[C@H](CC(C)C)N(C)C(=O)C[C@@H](C(=O)NCCc1ccc3c(c1)OCO3)NC2=O
**A:** 6.74

**Q:** Value lookup for pEC50; key = CC(C)C[C@H]1C(=O)N2CCCC[C@@H]2C(=O)N[C@H](Cc2ccccc2)COc2cnc3ccccc3c2C(=O)N[C@H](C(=O)NCCc2c(F)cccc2F)CC(=O)N1C
**A:** 6.85

**Q:** Value lookup for pEC50; key = CN1C(=O)C[C@@H](C(=O)NCCc2ccc3c(c2)OCO3)NC(=O)c2c(ccc3ccccc23)OC[C@@H](Cc2ccccc2)NC(=O)CN(CC[C@H]2CCCCO2)C(=O)[C@@H]1CC1CCC1
**A:** 6.58

**Q:** Value lookup for pEC50; key = COc1cccc2c1C(=O)N[C@H](C(=O)NCCc1ccc3c(c1)OCO3)CC(=O)N(C)CC(=O)N(CCC1CCCCC1)CC(=O)N[C@H](Cc1ccccc1)CO2
**A:** 6.60

**Q:** Value lookup for pEC50; key = COc1nccc2c1C(=O)N[C@H](C(=O)NCCc1cccc(C)c1)CC(=O)N(C)[C@@H](CC(C)C)C(=O)N1CCCC[C@@H]1C(=O)N[C@H](Cc1ccccc1)CO2
**A:** 6.19

**Q:** Value lookup for pEC50; key = Cc1ccc2c(c1)C(=O)N[C@H](C(=O)NCCc1ccc3c(c1)OCO3)CC(=O)N(C)[C@@H](CC(C)C)C(=O)N(C)CC(=O)N[C@H](Cc1ccccc1)CO2
**A:** 6.55

**Q:** Value lookup for pEC50; key = [2H]C([2H])([2H])Oc1cccc(CCNC(=O)[C@@H]2CC(=O)N(C)[C@@H](CC(C)C)C(=O)N(CCC3CCCCC3)CC(=O)N[C@H](Cc3ccccc3)COc3ccc4nc(C)oc4c3C(=O)N2)c1
**A:** 7.17

**Q:** Value lookup for pEC50; key = COc1cccc(CCNC(=O)[C@@H]2CC(=O)N(C)[C@@H](CC(C)C)C(=O)N(C)CC(=O)N[C@H](Cc3ccccc3)COc3ccc(C)cc3C(=O)N2)c1
**A:** 6.32
